Values compiled from patent US20030207812A1.

- System: CD45 (Homo sapiens, UniProt P08575)
- Construct: incubating the cytosolic portion of CD45 with the compounds and p-nitrophenyl phosphate (pNPP); purchased BIOMOL (Plymouth Meeting, Pa.)
- Sequence (P08575 599-1306 limits assumed): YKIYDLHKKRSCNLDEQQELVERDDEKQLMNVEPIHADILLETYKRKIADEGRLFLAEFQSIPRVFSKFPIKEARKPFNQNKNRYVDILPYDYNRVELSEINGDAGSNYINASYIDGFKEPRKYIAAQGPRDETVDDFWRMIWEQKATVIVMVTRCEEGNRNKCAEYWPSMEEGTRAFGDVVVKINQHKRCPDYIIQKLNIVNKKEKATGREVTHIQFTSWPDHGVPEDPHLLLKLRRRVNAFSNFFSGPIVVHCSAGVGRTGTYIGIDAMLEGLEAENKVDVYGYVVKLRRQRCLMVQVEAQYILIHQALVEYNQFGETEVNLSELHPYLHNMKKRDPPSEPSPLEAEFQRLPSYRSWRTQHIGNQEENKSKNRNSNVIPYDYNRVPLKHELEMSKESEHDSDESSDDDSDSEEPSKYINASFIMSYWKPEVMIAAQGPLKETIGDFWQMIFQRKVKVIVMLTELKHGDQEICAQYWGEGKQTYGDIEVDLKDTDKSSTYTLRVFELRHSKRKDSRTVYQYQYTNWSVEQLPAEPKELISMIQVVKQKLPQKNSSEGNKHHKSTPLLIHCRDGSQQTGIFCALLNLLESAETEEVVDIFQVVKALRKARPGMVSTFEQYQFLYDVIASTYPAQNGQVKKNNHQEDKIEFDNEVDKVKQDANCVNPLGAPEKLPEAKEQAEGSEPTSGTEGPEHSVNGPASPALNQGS
- Assay Name: Phosphatase assay using lck 10-mer as substrate
- Assay type: biochemical
Where a SMILES comes first, the peptide text is derived from it. The star is where a group is joined. Phenanthrenequinone2carbonyl = O=C1C(=O)c2cc(C(=O)*)ccc2-c2ccccc21; 3Phenanthroyl(9,10-dioxo) = O=C1C(=O)c2ccc(C(=O)*)cc2-c2ccccc21
This listing pairs compounds with measured pIC50.
The value called pIC50 is obtained by taking minus log10 of the concentration in mol/L.

Check out these entries, answers already filled in.
Compound | Measured Result
N=C(N)NCCC[C@H](NC(=O)[C@H](CCC(=O)O)NC(=O)c1ccc2c(c1)C(=O)C(=O)c1ccccc1-2)C(=O)N1CCC[C@H]1C(=O)N[C@@H](CCC(=O)O)C(=O)NCC(=O)O [Example 47] (Phenanthrenequinone2carbonyl-ERPEG-OH) | 5.38
NC(=O)CC[C@H](NC(=O)c1ccc2c(c1)-c1ccccc1C(=O)C2=O)C(=O)N[C@@H](CCC(N)=O)C(=O)N1CCC[C@H]1C(=O)N[C@@H](CCC(N)=O)C(=O)N1CCC[C@H]1C(=O)O [Example 26] ({3Phenanthroyl(9,10-dioxo)}-QQPQP-OH) | 5.64
O=C(O)CC[C@H](NC(=O)[C@@H]1CCCN1C(=O)CNC(=O)CNC(=O)c1ccc2c(c1)C(=O)C(=O)c1ccccc1-2)C(=O)NCC(=O)O [Example 40] (Phenanthrenequinone2carbonyl-GGPEG-OH) | 5.41
N=C(N)NCCC[C@H](NC(=O)[C@@H]1CCCN1C(=O)[C@H](CCCNC(=N)N)NC(=O)CNC(=O)c1ccc2c(c1)C(=O)C(=O)c1ccccc1-2)C(=O)NCC(=O)O [Example 55] (Phenanthrenequinone2carbonyl-GRPRG-OH) | 5.33
N=C(N)NCCC[C@H](NC(=O)[C@@H]1CCCN1C(=O)CNC(=O)[C@H](CCC(=O)O)NC(=O)c1ccc2c(c1)C(=O)C(=O)c1ccccc1-2)C(=O)NCC(=O)O [Example 50] (Phenanthrenequinone2carbonyl-EGPRG-OH) | 5.55
NC(=O)CC[C@H](NC(=O)CNC(=O)c1ccc2c(c1)-c1ccccc1C(=O)C2=O)C(=O)NCC(=O)N[C@@H](CCC(=O)O)C(=O)N1CCC[C@H]1C(=O)O [Example 35] ({3Phenanthroyl(9,10-dioxo)}-GQGEP-OH) | 5.85
N=C(N)NCCC[C@H](NC(=O)[C@@H]1CCCN1C(=O)[C@H](CCC(=O)O)NC(=O)CNC(=O)c1ccc2c(c1)C(=O)C(=O)c1ccccc1-2)C(=O)NCC(=O)O [Example 52] (Phenanthrenequinone2carbonyl-GEPRG-OH) | 5.52

Lab note: next compound to report on.
Exercise: Specify pIC50 for NC(=O)CC[C@H](NC(=O)CNC(=O)[C@H](CCC(=O)O)NC(=O)CNC(=O)c1ccc2c(c1)-c1ccccc1C(=O)C2=O)C(=O)N1CCC[C@H]1C(=O)O [Example 32] ({3Phenanthroyl(9,10-dioxo)}-GEGQP-OH) and stop.
Key: 5.64
